# System: Candida albicans
# test.details: Potentiation of fluconazole-induced antifungal activity against fluconazole-resistant Candida albicans 311 assessed as fluconazole MIC by checker board microdilution assay
# Assay type: functional
measure: MIC80 (µg/mL)
Unit µg/mL implied. Number only.

CNC(=O)c1noc(-c2cc(-c3ccc(C)cc3)c(O)cc2O)c1-c1ccc(CN2CCOCC2)cc1 2

Problem: In one line, give reported MIC80 of the entry `CCNC(=O)c1noc(-c2cc(-c3ccc(C)cc3)c(O)cc2O)c1-c1ccc(CN2CCCCC2)cc1` .
Result: 2

Problem: In one line, give reported MIC80 of the entry `CNC(=O)c1noc(-c2cc(-c3ccc(C)cc3)c(O)cc2O)c1-c1ccc(CN2CCCCC2)cc1` .
Result: 1

Problem: In one line, give reported MIC80 of the entry `CCNC(=O)c1noc(-c2cc(-c3ccc(C)cc3)c(O)cc2O)c1-c1ccc(CN2CCOCC2)cc1` .
Result: 2
